Consider the following compounds and their measured TGI readings.
# Tested on: SNB-19 CNS
# assay_notes: NCI tumour cell line growth inhibition, 48 h
Your answer is read as µM, so omit the unit and give the number.

structure_smiles | assayed_system | measurement_units | test_value
O=C(CCC=C(S(=O)(=O)c1ccccc1)S(=O)(=O)c1ccccc1)c1ccccc1 | SNB-19 CNS | µM | 28.4

Would you kindly look at the next entry?
Report TGI for "CN(C)CCNC(=O)c1cccc2cc3c(Cl)cccc3nc12" please.
7.32

----------
Entries and their measured TGI follow.
# Tested on: SK-MEL-2 melanoma
# assay_notes: NCI tumour cell line growth inhibition, 48 h
Numeric only. Scale: µM

structure_smiles | assayed_system | TGI [µM]
CC1(C)CNc2cc(NC(=O)c3cccnc3NCc3ccncc3)ccc21 | SK-MEL-2 melanoma | 47.8

Query for SK-MEL-2 melanoma: what TGI does the record show for "Clc1ccc(-c2cn3c(nc4ccccc43)c(/C=C/c3ccco3)n2)cc1" ?
41.6

Input "O=[N+]([O-])C=C(c1ccc(Cl)cc1)c1ccc(Cl)cc1"
57

# iterate: "CCN(CC)CCN1C(=O)c2c(c3c4ccccc4[nH]c3c3ccc4ccccc4c23)C1=O"
6.5

FYI, the data here is from PubChem BioAssay (NCI).
